Taken from patent US20240262822A1.

target: WDR5 (Homo sapiens); construct: WDR5-His Tag (A23, residues 24-334) is expressed and purified in our lab; made in house; experiment: Time Resolved-Fluorescence Energy Transfer (TR-FRET) competition assay, displacement of 10mer-Thr-FAM probe from His-tagged WDR5; type: binding; conditions: WDR5-His tag 2 nM, 10mer-Thr-FAM 150 nM, 60 minutes at room temperature; read-out: Ki for Exemplified Compounds for Inhibition of WDR5 by TR-FRET assay
The entries below are paired with their reported Ki.

CCc1cc2c(N3CCc4c(cc(Cn5ccnc5)cc4-c4cn(C)nc4C(F)(F)F)C3=O)cc(C)nc2c(OC)n1: < 0.02 nM
CCc1cc2c(N3CCc4c(cc(Cn5ccnc5)cc4-c4cn(C)nc4C(F)(F)F)C3=O)ccnc2c(NC)n1: < 0.02 nM
CCOc1cc2ncnc(N3CCc4c(cc(Cn5ccnc5)cc4-c4cn(C)nc4C(F)(F)F)C3=O)c2cc1OCC: < 0.02 nM

Shift focus to the following entry.
Challenge: Recorded Ki of `CCc1cc2c(N3CCc4c(cc(Cn5ccnc5)cc4-c4cn(C)nc4C(F)(F)F)C3=O)ccnc2c(COC)n1` , please.
Response given: 0.03 nM

====

molecular target: WDR5 (Homo sapiens, UniProt P61964); construct: WDR5-His Tag (A23, residues 24-334) is expressed and purified in our lab; made in house; experiment: Time Resolved-Fluorescence Energy Transfer (TR-FRET) competition assay, displacement of 10mer-Thr-FAM probe from His-tagged WDR5; assay type: binding; settings: WDR5-His tag 2 nM, 10mer-Thr-FAM 150 nM, 60 minutes at room temperature; read-out: Ki for additional WDR5 inhibitor compounds for Inhibition of WDR5 by TR-FRET assay
Classify: y when Ki is strictly less than 0.03 nM; n when Ki is not.

The examples below pair each entry with its known result.
CCc1cc(C(=O)NC2CN(C(=O)c3ccncc3)C2)c2nccc(N3CCc4c(cc(Cn5ccnc5)cc4-c4cn(C)nc4C(F)(F)F)C3=O)c2c1 [Compound B-225]: y
CCc1cc(C(=O)O)c2nccc(N3CCc4c(cc(Cn5ccnc5)cc4-c4cn(C)nc4C(F)(F)F)C3=O)c2c1: n
COc1cc(-c2nnn[nH]2)c2nc(C)cc(N3CCc4c(cc(Cn5ccnc5)cc4-c4cn(C)nc4C(F)(F)F)C3=O)c2c1: n
CCc1cc(N2CCN(C)C(=O)C2)c2nc(C)cc(N3CCc4c(cc(Cn5ccnc5)cc4-c4cn(C)nc4C(F)(F)F)C3=O)c2c1: y
CCc1cc(-c2cccn2C)c2nccc(N3CCc4c(cc(Cn5ccnc5)cc4-c4cn(C)nc4C(F)(F)F)C3=O)c2c1: y

Challenge: Below 0.03 nM on Ki? Entry `COc1cc(C(=O)N2CCN(C)CC2)c2nccc(N3CCc4c(cc(Cn5ccnc5)cc4-c4cn(C)nc4C(F)(F)F)C3=O)c2c1`
Response given: n

Challenge: Below 0.03 nM on Ki? Entry `COc1cc(C(N)=O)c2nc(C)cc(N3CCc4c(cc(Cn5ccnc5)cc4-c4cn(C)nc4C(F)(F)F)C3=O)c2c1`
Response given: y

Challenge: Below 0.03 nM on Ki? Entry `CCc1cc(C2=CCN(C)CC2)c2nc(C)cc(N3CCc4c(cc(Cn5ccnc5)cc4-c4cn(C)nc4C(F)(F)F)C3=O)c2c1`
Response given: y

====

biological target: WDR5 (Homo sapiens, UniProt P61964); construct: WDR5-His Tag (A23, residues 24-334) is expressed and purified in our lab; made in house; experiment: Time Resolved-Fluorescence Energy Transfer (TR-FRET) competition assay, displacement of 10mer-Thr-FAM probe from His-tagged WDR5; format: binding; conditions: WDR5-His tag 2 nM, 10mer-Thr-FAM 150 nM, 60 minutes at room temperature; read-out: Ki for additional WDR5 inhibitor compounds for Inhibition of WDR5 by TR-FRET assay
The entries below are paired with their reported Ki.
Lab book: enter the figure in nM, no units written.

Illustrative cases are given below, each with its answer.
CCc1cc(C(=O)NCCO)c2nccc(N3CCc4c(cc(Cn5ccnc5)cc4-c4cn(C)nc4C(F)(F)F)C3=O)c2c1: 0.028
CCOC(=O)c1cc(CC)cc2c(N3CCc4c(cc(Cn5ccnc5)cc4-c4cn(C)nc4C(F)(F)F)C3=O)cc(C)nc12: 0.026
CCc1cc(Br)c2nccc(N3CCc4c(cc(Cn5ccnc5)cc4-c4cn(C)nc4C(F)(F)F)C3=O)c2c1: 0.02
COc1cc(N2CCOCC2)c2nc(C)cc(N3CCc4c(cc(Cn5ccnc5)cc4-c4cn(C)nc4C(F)(F)F)C3=O)c2c1: 0.025

Challenge: Field: Ki (WDR5 (Homo sapiens, UniProt P61964)). Entry: `CCc1cc(C(=O)NC2CCCC2)c2nccc(N3CCc4c(cc(Cn5ccnc5)cc4-c4cn(C)nc4C(F)(F)F)C3=O)c2c1`
Response given: 0.028

Challenge: Field: Ki (WDR5 (Homo sapiens, UniProt P61964)). Entry: `COc1cc(-c2n[nH]c(=O)o2)c2nc(C)cc(N3CCc4c(cc(Cn5ccnc5)cc4-c4cn(C)nc4C(F)(F)F)C3=O)c2c1`
Response given: 0.023

====

target: WDR5 (Homo sapiens, UniProt P61964); construct: WDR5-His Tag (A23, residues 24-334) is expressed and purified in our lab; made in house; experiment: Time Resolved-Fluorescence Energy Transfer (TR-FRET) competition assay, displacement of 10mer-Thr-FAM probe from His-tagged WDR5; assay type: binding; details: WDR5-His tag 2 nM, 10mer-Thr-FAM 150 nM, 60 minutes at room temperature; read-out: Ki for Exemplified Compounds for Inhibition of WDR5 by TR-FRET assay
RECORDED ENDPOINT: Ki

Challenge: Recorded Ki of `COc1cc2c(N3CCc4c(cc(Cn5ccnc5)cc4-c4cn(C)nc4C(F)(F)F)C3=O)ncnc2cc1OCc1ccnn1C` , please.
Response given: < 0.02 nM

====

The entries below are paired with their reported Ki.
molecular target: WDR5 (Homo sapiens, UniProt P61964); construct: WDR5-His Tag (A23, residues 24-334) is expressed and purified in our lab; made in house; assay: Time Resolved-Fluorescence Energy Transfer (TR-FRET) competition assay, displacement of 10mer-Thr-FAM probe from His-tagged WDR5; format: binding; settings: WDR5-His tag 2 nM, 10mer-Thr-FAM 150 nM, 60 minutes at room temperature; read-out: Ki for Exemplified Compounds for Inhibition of WDR5 by TR-FRET assay

Challenge: Recorded Ki of `COCCOc1cc2ncnc(N3CCc4c(cc(Cn5ccnc5)cc4-c4cn(C)nc4C(F)(F)F)C3=O)c2cc1OC` , please.
Response given: 0.036 nM

Challenge: Recorded Ki of `COc1cc2nc(C)nc(N3CCc4c(cc(Cn5ccnc5)cc4-c4cc(C(F)(F)F)nn4C)C3=O)c2cc1OC` , please.
Response given: 0.031 nM

Challenge: Recorded Ki of `CCc1cc2c(N3CCc4c(cc(Cn5ccnc5)cc4-c4cn(C)nc4C(F)(F)F)C3=O)ncnc2cc1OC` , please.
Response given: < 0.02 nM

Challenge: Recorded Ki of `CCc1cc2c(N3CCc4c(cc(Cn5ccnc5)cc4-c4cn(C)nc4C(F)(F)F)C3=O)ccnc2c(-n2cccc2)n1` , please.
Response given: < 0.02 nM

====

The entries below are paired with their reported Ki.
biological target: WDR5 (Homo sapiens, UniProt P61964); construct: WDR5-His Tag (A23, residues 24-334) is expressed and purified in our lab; made in house; test: Time Resolved-Fluorescence Energy Transfer (TR-FRET) competition assay, displacement of 10mer-Thr-FAM probe from His-tagged WDR5; format: binding; conditions: WDR5-His tag 2 nM, 10mer-Thr-FAM 150 nM, 60 minutes at room temperature; read-out: Ki for additional WDR5 inhibitor compounds for Inhibition of WDR5 by TR-FRET assay
Lab book: enter the figure in nM, no units written.

CCCCNC(=O)c1cc(OC)cc2c(N3CCc4c(cc(Cn5ccnc5)cc4-c4cn(C)nc4C(F)(F)F)C3=O)ccnc12: 0.028
COc1cc(C(=O)Nc2cn[nH]c2)c2nc(C)cc(N3CCc4c(cc(Cn5ccnc5)cc4-c4cn(C)nc4C(F)(F)F)C3=O)c2c1: 0.023

Challenge: Recorded Ki of `COc1cc(C(N)=O)c2nccc(N3CCc4c(cc(Cn5ccnc5)cc4-c4cn(C)nc4C(F)(F)F)C3=O)c2c1` , please.
Response given: 0.023

Challenge: Recorded Ki of `Cc1cc(N2CCN(C)CC2)c2cncc(N3CCc4c(cc(Cn5ccnc5)cc4-c4cn(C)nc4C(F)(F)F)C3=O)c2c1` , please.
Response given: 0.026

Challenge: Recorded Ki of `COc1cc(N2CCN(C)C(=O)C2)c2nc(C)cc(N3CCc4c(cc(Cn5ccnc5)cc4-c4cn(C)nc4C(F)(F)F)C3=O)c2c1` , please.
Response given: 0.022

Challenge: Recorded Ki of `COc1cc(N2CCC(NC(C)=O)CC2)c2nc(C)cc(N3CCc4c(cc(Cn5ccnc5)cc4-c4cn(C)nc4C(F)(F)F)C3=O)c2c1` , please.
Response given: 0.021

Challenge: Recorded Ki of `CCOC(=O)c1cc(CC)cc2c(N3CCc4c(cc(Cn5ccnc5)cc4-c4cn(C)nc4C(F)(F)F)C3=O)ccnc12` , please.
Response given: 0.023

Challenge: Recorded Ki of `CCc1cc(N2CCN(C(C)C)CC2)c2nc(C)cc(N3CCc4c(cc(Cn5ccnc5)cc4-c4cn(C)nc4C(F)(F)F)C3=O)c2c1` , please.
Response given: 0.032

Challenge: Recorded Ki of `COc1cc(N2CCN(C)C(=O)C2)c2nccc(N3CCc4c(cc(Cn5ccnc5)cc4-c4cn(C)nc4C(F)(F)F)C3=O)c2c1` , please.
Response given: 0.022
